Ref: patent US7989464B2

// reported pIC50 for each item listed
Target: hmGluR1 receptor (Homo sapiens, UniProt Q13255)
Construct: expressed in transfected cells
Sequence (Q13255 19-1194): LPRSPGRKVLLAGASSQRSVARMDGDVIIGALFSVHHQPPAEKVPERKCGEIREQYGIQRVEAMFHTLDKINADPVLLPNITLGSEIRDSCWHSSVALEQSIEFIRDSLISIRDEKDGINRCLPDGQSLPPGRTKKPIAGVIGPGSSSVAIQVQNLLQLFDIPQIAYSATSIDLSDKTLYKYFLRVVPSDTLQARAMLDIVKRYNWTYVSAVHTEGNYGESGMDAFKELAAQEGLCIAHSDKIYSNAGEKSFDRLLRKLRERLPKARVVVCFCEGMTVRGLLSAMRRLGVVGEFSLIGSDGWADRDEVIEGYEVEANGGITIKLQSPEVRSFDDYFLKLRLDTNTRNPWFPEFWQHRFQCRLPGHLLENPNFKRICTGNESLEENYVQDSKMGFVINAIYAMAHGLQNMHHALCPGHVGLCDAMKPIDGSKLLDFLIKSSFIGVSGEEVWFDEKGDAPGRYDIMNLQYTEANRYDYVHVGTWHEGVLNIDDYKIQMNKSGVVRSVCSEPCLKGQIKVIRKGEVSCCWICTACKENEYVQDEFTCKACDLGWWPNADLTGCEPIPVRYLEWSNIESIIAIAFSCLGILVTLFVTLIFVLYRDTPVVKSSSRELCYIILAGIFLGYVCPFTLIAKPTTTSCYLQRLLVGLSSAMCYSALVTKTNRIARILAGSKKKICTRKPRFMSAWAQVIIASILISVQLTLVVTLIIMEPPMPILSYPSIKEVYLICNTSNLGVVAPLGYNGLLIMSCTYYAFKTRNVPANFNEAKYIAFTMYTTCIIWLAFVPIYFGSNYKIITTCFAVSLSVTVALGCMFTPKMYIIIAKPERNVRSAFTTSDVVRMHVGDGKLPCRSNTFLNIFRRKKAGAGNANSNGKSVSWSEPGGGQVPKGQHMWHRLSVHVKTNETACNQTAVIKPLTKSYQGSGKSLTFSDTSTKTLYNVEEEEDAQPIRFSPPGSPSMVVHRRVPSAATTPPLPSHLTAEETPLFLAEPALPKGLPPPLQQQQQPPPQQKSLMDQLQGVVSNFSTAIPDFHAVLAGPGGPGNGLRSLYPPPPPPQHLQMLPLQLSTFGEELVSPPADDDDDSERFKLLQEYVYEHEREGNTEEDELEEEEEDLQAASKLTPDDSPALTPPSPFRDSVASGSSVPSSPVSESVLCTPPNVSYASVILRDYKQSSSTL
Assay: IC50 determination: intracellular calcium mobilization (FLIPR) upon Quisqualate stimulation in CHO cells stably expressing hmGluR1
Assay type: cell-based
Conditions: against Quisqualate 1 μM (EC80), FLIPR calcium mobilization, read-out: IC50 Class
pIC50: −log10 of the molar value.

Solved entries:
C#CCOc1ccnc2sc3c(=O)n(-c4ccc(Cl)cc4)cnc3c12 [66G] ... > 7.30
COc1ccc(-n2cnc3c(sc4nc(C)nc(N)c43)c2=O)cc1 [95EU] ... 6.00 to 6.82
COc1ccc(-n2cnc3c(sc4nccc(C(C)C)c43)c2=O)cc1 [29H] ... > 7.30
C#CCOc1ccnc2sc3c(=O)n(-c4ccc(Br)cc4)cnc3c12 [66I] ... > 7.30
Cc1nc(N)c2c(n1)sc1c(=O)n(-c3ccc(Cl)cc3)cnc12 [95EV] ... > 7.30

# input for lookup
Exercise: Give reported pIC50 for CN(C)c1cccc2sc3c(=O)n(-c4ccc(F)cc4)cnc3c12 [103N] (hmGluR1 receptor (Homo sapiens, UniProt Q13255))
Solution: 6.00 to 6.82
